Numbers sourced from patent US10577373B2.

test system: GM-CSF induced STAT5 phosphorylation mediated by the JAK2/JAK2 homdimeric complex; test: GM-CSF Induced pSTAT5 in Human PBMC; conditions: Homo sapiens, PBMC, 20 min, read-out: PBMC_GMCSF_pSTAT5 IC50, human PBMC; GM-CSF 5 ng/mL for 20 minutes; pSTAT5
pIC50: −log10 of the molar value.
endpoint.label: pIC50

QUERY: Give the value of pIC50 reported for the following: CNc1cc(Nc2cc(F)cn(-c3ccc(C)nn3)c2=O)nc2c(C(=O)N[C@H]3C[C@H]3F)cnn12 [I-198]
RESULT: < 5.60

QUERY: Give the value of pIC50 reported for the following: CNc1cc(Nc2cccn(-c3ccon3)c2=O)nc2c(C(=O)NC3CCC3)cnn12 [I-158]
RESULT: < 4.30

QUERY: Give the value of pIC50 reported for the following: [2H]C([2H])([2H])Oc1ncccc1Nc1cc(NC)n2ncc(C(=O)N[C@@H]3CCC[C@@H](O)C3)c2n1 [I-499]
RESULT: < 4.30

QUERY: Give the value of pIC50 reported for the following: CNc1cc(Nc2cccn([C@@H]3CCCOC3)c2=O)nc2c(C(=O)N[C@H]3CC[C@H]3O)cnn12 [I-751]
RESULT: < 4.90
